# TG per entry
species on record: Rattus norvegicus; assay: Open TG-GATES - Regimen: Single; type: toxicity, organism-based, Sprague-Dawley; design: regimen Single, gender Male, age 6 weeks; details: in vivo, po, 100 mg/kg, 6 h, tissue Plasma, route gavage, dose level Low
Measured parameter: TG (mg/dL)

{"Compound smiles": "CN/C(=N/CCSCc1nc[nH]c1C)NC#N", "Experimental result": 61.4}
{"Compound smiles": "O=C(OC[C@H]1O[C@@H](OC(=O)c2cc(O)c(O)c(OC(=O)c3cc(O)c(O)c(O)c3)c2)[C@H](OC(=O)c2cc(O)c(O)c(OC(=O)c3cc(O)c(O)c(O)c3)c2)[C@@H](OC(=O)c2cc(O)c(O)c(OC(=O)c3cc(O)c(O)c(O)c3)c2)[C@@H]1OC(=O)c1cc(O)c(O)c(OC(=O)c2cc(O)c(O)c(O)c2)c1)c1cc(O)c(O)c(OC(=O)c2cc(O)c(O)c(O)c2)c1", "Experimental result": 41.4}
{"Compound smiles": "Cc1nnc2n1-c1ccc(Cl)cc1C(c1ccccc1Cl)=NC2", "Experimental result": 34}
{"Compound smiles": "CNC(=C[N+](=O)[O-])NCCSCc1ccc(CN(C)C)o1", "Experimental result": 52.8}
{"Compound smiles": "COC(=O)C1=C(C)NC(C)=C(C(=O)OC)C1c1ccccc1[N+](=O)[O-]", "Experimental result": 20.8}

Data credit: ChEMBL document CHEMBL3885861
